Each record here notes measured z-score of subpopulation abundance.
System: Saccharomyces cerevisiae BY4741 SeMeCo community
Assay summary: z-score of subpopulation abundance vs DMSO median, subpopulation auxotrophic for HU; higher = larger share of this subpopulation than in DMSO controls
Settings: 10 µM; 24 h; SM minimal medium; subpopulation (auxotrophy): HU
Where a name gives a salt, the structure may show the parent alone.
Readout name: z-score of subpopulation abundance

| Compound | Readout name | Measured |
| --- | --- | --- |
| C[C@]12CC[C@@H]3c4ccc(O)cc4CC[C@H]3[C@@H]1CC[C@@H]2O [Estradiol] | z-score of subpopulation abundance | -1.02 |
| COc1ccc2c3c1O[C@H]1C[C@@H](O)C=C[C@@]31CCN(C)C2 [Galanthamine] | z-score of subpopulation abundance | 0.48 |
| OCCOc1ccc(/C(=C(/CCCl)c2ccccc2)c2ccccc2)cc1 [Ospemifene] | z-score of subpopulation abundance | -0.18 |
| COc1cnc(NS(=O)(=O)c2ccc(N)cc2)nc1 [Sulfameter] | z-score of subpopulation abundance | -0.1 |
| COc1ccc(C(=O)NCc2ccc(OCCN(C)C)cc2)cc1OC [Itopride hydrochloride] | z-score of subpopulation abundance | 0.11 |
| COc1ccc2cc(CCC(C)=O)ccc2c1 [Nabumetone] | z-score of subpopulation abundance | -0.64 |
| OCc1ccc(Cl)cc1Cl [2,4-dichlorobenzyl alcohol] | z-score of subpopulation abundance | -0.65 |
| CO/N=C(\C(=O)N[C@@H]1C(=O)N2C(C(=O)O)=C(CSc3nc(C)c(CC(=O)O)s3)CS[C@H]12)c1csc(N)n1 [Cefodizime Sodium] | z-score of subpopulation abundance | 0.66 |
| O=C(Nc1ccc(Oc2ccc(Cl)cc2)c(Cl)c1)c1cc(I)cc(I)c1O [Rafoxanide] | z-score of subpopulation abundance | -0.5 |
| CC[C@H]1OC(=O)[C@H](C)[C@@H](O[C@H]2C[C@@](C)(OC)[C@@H](O)[C@H](C)O2)[C@H](C)[C@@H](O[C@@H]2O[C@H](C)C[C@H](N(C)C)[C@H]2O)[C@](C)(O)C[C@@H](C)CN[C@H](C)[C@@H](O)[C@]1(C)O [Azathramycin] | z-score of subpopulation abundance | -0.16 |
| COCC1=C(C(=O)OC(C)OC(=O)OC(C)C)N2C(=O)[C@@H](NC(=O)/C(=N\OC)c3csc(N)n3)[C@H]2SC1 (some centres not stated) [Cefpodoxime proxetil] | z-score of subpopulation abundance | 0.99 |
| CC(C(O)c1ccc(O)cc1)N1CCC(Cc2ccccc2)CC1 (configuration not stated) [Ifenprodil Tartrate] | z-score of subpopulation abundance | -0.43 |
| C#CCN(C)Cc1ccccc1 [Pargyline hydrochloride] | z-score of subpopulation abundance | -0.08 |
| C#C[C@]1(O)CC[C@H]2[C@@H]3CCc4cc(O)ccc4[C@H]3CC[C@@]21C [Ethinyl Estradiol] | z-score of subpopulation abundance | 0.01 |
| Cc1ccnc(NS(=O)(=O)c2ccc(N)cc2)n1 [Sulfamerazine] | z-score of subpopulation abundance | -0.3 |
| C[C@@H](O)[C@H]1C(=O)N2C(C(=O)O)=C(S[C@@H]3CN[C@H](C(=O)N(C)C)C3)[C@H](C)[C@H]12 [Meropenem Trihydrate] | z-score of subpopulation abundance | -0.59 |
| CCC[C@@H]1C[C@@H](C(=O)N[C@@H]([C@H]2O[C@H](SC)[C@H](O)[C@@H](O)[C@H]2O)[C@@H](C)O)N(C)C1 [Lincomycin HCl] | z-score of subpopulation abundance | -0.73 |
| O=C(O)CCC(=O)c1ccc(-c2ccccc2)cc1 [Fenbufen] | z-score of subpopulation abundance | 0.87 |
| CN(CCOc1ccc(NS(C)(=O)=O)cc1)CCc1ccc(NS(C)(=O)=O)cc1 [Dofetilide] | z-score of subpopulation abundance | 0.18 |
| NC(=O)c1cn(Cc2c(F)cccc2F)nn1 [Rufinamide] | z-score of subpopulation abundance | -0.24 |
| CC[C@H]1OC(=O)[C@H](C)[C@@H](O[C@H]2C[C@@](C)(OC)[C@@H](O)[C@H](C)O2)[C@H](C)[C@@H](O[C@@H]2O[C@H](C)C[C@H](N(C)C)[C@H]2O)[C@](C)(O)C[C@@H](C)C(=O)[C@H](C)[C@H]2OC(=O)O[C@@]21C [Erythromycin Cyclocarbonate] | z-score of subpopulation abundance | 0.76 |
| Cc1cc2c(s1)Nc1ccccc1N=C2N1CCN(C)CC1 [Olanzapine] | z-score of subpopulation abundance | 0.19 |
| CC(=O)OC(C)C[N+](C)(C)C (configuration not stated) [Methacholine chloride] | z-score of subpopulation abundance | 0.67 |
| CCOC(=O)c1c(CSc2ccccc2)n(C)c2cc(Br)c(O)c(CN(C)C)c12 [Arbidol HCl] | z-score of subpopulation abundance | 0.91 |
| Oc1c(Cl)cc(Cl)c2cccnc12 [Chloroxine] | z-score of subpopulation abundance | 12.7 |
| COc1c(N2C[C@@H]3CCCN[C@@H]3C2)c(F)cc2c(=O)c(C(=O)O)cn(C3CC3)c12 [Moxifloxacin HCl] | z-score of subpopulation abundance | -0.55 |
| C[C@]1(Cn2ccnn2)[C@H](C(=O)O)N2C(=O)C[C@H]2S1(=O)=O [Tazobactam] | z-score of subpopulation abundance | 0.31 |
| N#CC(c1ccc(Cl)cc1)c1c(Cl)cc(-n2ncc(=O)[nH]c2=O)cc1Cl (configuration not stated) [Diclazuril] | z-score of subpopulation abundance | -0.93 |
| CN1C(C(=O)Nc2ccccn2)=C(O)c2sc(Cl)cc2S1(=O)=O [Lornoxicam] | z-score of subpopulation abundance | 0.59 |
| COC1C(O)CC(=O)OC(C)CC=CC=CC(OC2CCC(N(C)C)C(C)O2)C(C)CC(CC=O)C1OC1OC(C)C(OC2CC(C)(O)C(O)C(C)O2)C(N(C)C)C1O (configuration not stated) [Spiramycin] | z-score of subpopulation abundance | 0.31 |
| CCCN[C@H]1CCc2nc(N)sc2C1 [Pramipexole dihydrochloride] | z-score of subpopulation abundance | 0 |
| Cc1ccccc1OCC(O)CO (configuration not stated) [Mephenesin] | z-score of subpopulation abundance | -0.86 |

----------
Tested on: Saccharomyces cerevisiae BY4741 SeMeCo community
Assay summary: z-score of subpopulation abundance vs DMSO median, subpopulation auxotrophic for UM; higher = larger share of this subpopulation than in DMSO controls
Settings: 10 µM; 24 h; SM minimal medium; subpopulation (auxotrophy): UM
Counter-ions that a name gives are not always drawn.
Please enter label 1 where z-score of subpopulation abundance is greater than or equal to 0.1, and label 0 where it is lower.

| Compound | Class |
| --- | --- |
| O=C1OC(CN2CCOCC2)CN1/N=C/c1ccc([N+](=O)[O-])o1 (configuration not stated) [Furaltadone HCl] | label 1 |
| CN[C@@H]1[C@@H](O)[C@@H](O[C@@H]2[C@@H](O)[C@H](O[C@H]3O[C@H](CN)[C@@H](O)[C@H](O)[C@H]3O)[C@@H](N)C[C@H]2NC(=O)[C@@H](O)CN)OC[C@]1(C)O [Isepamicin Sulphate] | label 1 |
| CC(=O)OC(C)C[N+](C)(C)C (configuration not stated) [Methacholine chloride] | label 1 |
| NC12CC3CC(CC(C3)C1)C2 [Amantadine HCl] | label 0 |
| Cc1cnc(NC(=O)C2=C(O)c3ccccc3S(=O)(=O)N2C)s1 [Meloxicam] | label 0 |
| CO/N=C(\C(=O)N[C@@H]1C(=O)N2C(C(=O)O)=C(COC(N)=O)CS[C@H]12)c1ccco1 [Cefuroxime sodium] | label 1 |
| NC1CCN(c2nc3c(cc2F)c(=O)c(C(=O)O)cn3-c2ccc(F)cc2F)C1 (configuration not stated) [Tosufloxacin p-Toluenesulfonate Hydrate] | label 0 |

----------
System: Saccharomyces cerevisiae BY4741 SeMeCo community
Assay summary: z-score of subpopulation abundance vs DMSO median, subpopulation auxotrophic for LM; higher = larger share of this subpopulation than in DMSO controls
Settings: 10 µM; 24 h; SM minimal medium; subpopulation (auxotrophy): LM
Each record here notes measured z-score of subpopulation abundance.
Readout name: z-score of subpopulation abundance

| Compound | Target system | Readout name | Measured |
| --- | --- | --- | --- |
| O=C(O)c1cc(-c2ccc(F)cc2F)ccc1O | Saccharomyces cerevisiae BY4741 SeMeCo community | z-score of subpopulation abundance | -1.23 |
| OCCN(CCO)c1nc(N2CCCCC2)c2nc(N(CCO)CCO)nc(N3CCCCC3)c2n1 | Saccharomyces cerevisiae BY4741 SeMeCo community | z-score of subpopulation abundance | 10.9 |
| COc1cc([C@@H]2c3cc4c(cc3[C@@H](O[C@@H]3O[C@@H]5CO[C@@H](C)O[C@H]5[C@H](O)[C@H]3O)[C@H]3COC(=O)[C@H]23)OCO4)cc(OC)c1O [Etoposide] | Saccharomyces cerevisiae BY4741 SeMeCo community | z-score of subpopulation abundance | 0.96 |
| c1ccc(-c2ccc(C(c3ccccc3)n3ccnc3)cc2)cc1 (centres undefined) | Saccharomyces cerevisiae BY4741 SeMeCo community | z-score of subpopulation abundance | 0.64 |

Cited source for all entries: the supplement of paper PMC8975748
